# system_name: CSF1R (Homo sapiens, UniProt P07333)
# Sequence (P07333 20-972): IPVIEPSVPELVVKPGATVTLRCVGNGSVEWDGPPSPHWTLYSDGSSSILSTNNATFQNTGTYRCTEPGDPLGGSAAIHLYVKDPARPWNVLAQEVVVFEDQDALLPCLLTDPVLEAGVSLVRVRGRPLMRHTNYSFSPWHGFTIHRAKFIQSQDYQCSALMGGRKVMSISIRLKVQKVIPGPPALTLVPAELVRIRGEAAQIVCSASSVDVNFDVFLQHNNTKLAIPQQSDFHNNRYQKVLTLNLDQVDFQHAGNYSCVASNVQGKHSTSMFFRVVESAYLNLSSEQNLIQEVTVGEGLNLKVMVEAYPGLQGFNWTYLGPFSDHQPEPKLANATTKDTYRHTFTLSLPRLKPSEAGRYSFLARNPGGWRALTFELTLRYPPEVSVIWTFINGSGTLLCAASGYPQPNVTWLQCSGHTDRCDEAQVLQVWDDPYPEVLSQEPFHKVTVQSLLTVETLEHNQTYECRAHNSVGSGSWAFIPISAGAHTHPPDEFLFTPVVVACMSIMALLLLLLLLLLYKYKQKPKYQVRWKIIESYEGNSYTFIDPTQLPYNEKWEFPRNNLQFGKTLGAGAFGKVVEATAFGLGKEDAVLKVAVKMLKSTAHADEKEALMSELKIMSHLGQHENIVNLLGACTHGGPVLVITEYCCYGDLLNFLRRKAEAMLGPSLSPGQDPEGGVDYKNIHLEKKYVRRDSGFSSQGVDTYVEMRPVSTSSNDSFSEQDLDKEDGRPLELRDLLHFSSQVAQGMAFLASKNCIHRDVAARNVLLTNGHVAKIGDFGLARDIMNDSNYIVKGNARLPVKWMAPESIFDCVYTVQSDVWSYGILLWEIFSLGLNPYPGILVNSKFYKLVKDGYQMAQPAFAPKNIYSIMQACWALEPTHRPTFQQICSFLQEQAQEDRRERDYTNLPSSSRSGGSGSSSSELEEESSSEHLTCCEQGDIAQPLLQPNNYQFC
# method_summary: KINOMEscan competition binding assay for CSF1R
# Design: DNA tag for qPCR (not a peptide); host or cells: E. coli/T7 phage or HEK-293
# condition_notes: @ 0.1 uM; read-out: CSF1R kinase binding activity, Range
# Method: KINOMEscan™ is based on a competition binding assay that quantitatively measures the ability of a compound to compete with an immobilized, active-site directed ligand. […] The ability of the test compound to compete with the immobilized ligand is measured via quantitative PCR of the DNA tag. E. coli were grown to log-phase and infected with T7 phage and incubated with shaking at 32° C. until lysis. […] Kds were determined using an 11-point 3-fold compound dilution series with three DMSO control points. […]
parameter: inhibition at 0.1 µM

Here is how some molecules turned out for inhibition at 0.1 µM.
[[record]]
molecule = "COc1cc2nccc(Oc3ccc(NC(=O)c4nn(CCO)cc4OCC(F)(F)F)cc3)c2cc1OC [Compound 59]"
result = "≥ 80%"

[[record]]
molecule = "COc1cc2nccc(Oc3ccc(NC(=O)c4nn(C5CCCC5)cc4OCC(F)(F)F)cc3)c2cc1OC [Compound 60]"
result = "50 to 80%"

[[record]]
molecule = "COc1cc2nccc(Oc3ccc(NC(=O)c4nn(CC(C)O)cc4OCCF)nc3)c2cc1OC (stereo not drawn) [Compound 152]"
result = "≥ 80%"

[[record]]
molecule = "COc1cc2nccc(Oc3ccc(NC(=O)c4nn(CCOC5CC5)cc4OCC(F)(F)F)nn3)c2cc1OC [Compound 120]"
result = "≥ 80%"

[[record]]
molecule = "COc1cc2nccc(Oc3ccc(NC(=O)c4nn(C5CCOC5)cc4OCC(F)(F)F)nn3)c2cc1OC (stereo not drawn) [Compound 128]"
result = "≥ 80%"

[[record]]
molecule = "COCCn1cc(OCC(F)(F)F)c(C(=O)Nc2ccc(Oc3ccnc4cc(OC)c(OC)cc34)cc2F)n1 [Compound 49]"
result = "50 to 80%"

[[record]]
molecule = "COc1cc2nccc(Oc3ccc(NC(=O)c4nn(C)cc4OCC(F)(F)F)nn3)c2cc1OC [Compound 102]"
result = "≥ 80%"

[[record]]
molecule = "CCCn1cc(OCC(F)(F)F)c(C(=O)Nc2ccc(Oc3ccnc4cc(OC)c(OC)cc34)cc2C)n1 [Compound 27]"
result = "50 to 80%"

[[record]]
molecule = "CCCCn1cc(OCC(F)(F)F)c(C(=O)Nc2ccc(Oc3ccnc4cc(OC)c(OC)cc34)cn2)n1 [Compound 36]"
result = "≥ 80%"

[[record]]
molecule = "CCCn1cc(OCC2CCC2)c(C(=O)Nc2ccc(Oc3ccnc4cc(OC)c(OC(F)(F)F)cc34)cn2)n1 [Compound 167]"
result = "< 50%"


Consider now this further molecule.
Q: State inhibition at 0.1 µM (CSF1R (Homo sapiens, UniProt P07333)) of COc1cc2nccc(Oc3ccc(NC(=O)c4nn(C5CC5)cc4OCCC(F)(F)F)nc3)c2cc1OC [Compound 170] .
A: ≥ 80%
